The reported numbers originate from the supplement of paper PMC10567573.

B1: DUSP5 (parent)
chain: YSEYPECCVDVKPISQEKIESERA

variants of: B1; assay: protein stability index of a GFP-peptide fusion (GPS, HEK-293T) (PSI 1-6); higher = more stable; details: c terminus: a fixed tail appended;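 note: lentivirally expressed fusions sorted by FACS into six bins by GFP to DsRed ratio, PSI derived from sequencing read proportions per bin multiplied by bin number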
This section presents variants with their documented protein stability index values.
property label: protein stability index

[[record]]
seq = "YSEYPECCVDVKPILQEKIESERA [S15L]"
value_observed = 3.68

[[record]]
seq = "YSEYPECCVDVKPISQEKIESERQ [A24Q]"
value_observed = 4.18

[[record]]
seq = "YSEYPECAVDVKPISQEKIESERA [C8A]"
value_observed = 4.56

[[record]]
seq = "YSEYPECCVDVKQISQEKIESERA [P13Q]"
value_observed = 4.14

[[record]]
seq = "YSERPECCVDVKPISQEKIESERA [Y4R]"
value_observed = 5.52

[[record]]
seq = "YSEYPECCVDVKPISGEKIESERA [Q16G]"
value_observed = 4.06

[[record]]
seq = "YSEYPECCVDVKPISQEKIGSERA [E20G]"
value_observed = 3.67

[[record]]
seq = "GSEYPECCVDVKPISQEKIESERA [Y1G]"
value_observed = 5.21

[[record]]
seq = "YSEYPECCVDPKPISQEKIESERA [V11P]"
value_observed = 3.61

[[record]]
seq = "YSTYPECCVDVKPISQEKIESERA [E3T]"
value_observed = 4.67

[[record]]
seq = "YSEDPECCVDVKPISQEKIESERA [Y4D]"
value_observed = 5.67

[[record]]
seq = "YSEYPECCVDVKPISIEKIESERA [Q16I]"
value_observed = 3.9

[[record]]
seq = "YSEYPEMCVDVKPISQEKIESERA [C7M]"
value_observed = 3.81

[[record]]
seq = "YSEYPECCVDVKPISQEKIESEHA [R23H]"
value_observed = 4.52

[[record]]
seq = "YSEYPECCVDVKPITQEKIESERA [S15T]"
value_observed = 3.85

[[record]]
seq = "YSEYPECCVDVKPKSQEKIESERA [I14K]"
value_observed = 4.43

[[record]]
seq = "YSEYPECCRDVKPISQEKIESERA [V9R]"
value_observed = 2.94

[[record]]
seq = "YSEYPECCVDVKPISQEKIESERY [A24Y]"
value_observed = 3

[[record]]
seq = "YSEYPECVVDVKPISQEKIESERA [C8V]"
value_observed = 4.35

[[record]]
seq = "YSEYPECCVDRKPISQEKIESERA [V11R]"
value_observed = 3.45

[[record]]
seq = "YSEYPECCVDVKPISQEKIEEERA [S21E]"
value_observed = 4.71

[[record]]
seq = "YSEYPEECVDVKPISQEKIESERA [C7E]"
value_observed = 5.76

